# measurement-target: T1, PCSK9 V domain (450-692 of SEQ ID NO: 3) (human, UniProt Q8NBP7 450-692)
# T1 construct: also called v-domain PCSK9
# T1 chain: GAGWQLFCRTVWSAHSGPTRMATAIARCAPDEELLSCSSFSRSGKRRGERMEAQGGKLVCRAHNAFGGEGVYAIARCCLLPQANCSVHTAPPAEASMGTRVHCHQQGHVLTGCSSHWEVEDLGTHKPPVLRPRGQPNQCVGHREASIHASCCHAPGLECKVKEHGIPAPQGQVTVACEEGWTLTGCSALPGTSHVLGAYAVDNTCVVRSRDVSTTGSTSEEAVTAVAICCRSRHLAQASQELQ
# protocol-text: domain binding ELISA (coated antibody captures the PCSK9 form; OD650)
measurement-type: binding result

27H5 (antibody, V domains shown) VH: QVQLVQSGAEVKRPGASVKVSCKASGYTLTSYGISWVRQAPGQGLEWMGWISVYNGNTNYAQKVQGRVTMTTDTSTSTVYMELRSLSSDDTAVYYCARGYGMDVWGQGTTVTVSS VL: QSALTQPASVSGSPGQSITISCTGTSSDVGGYNSVSWYQQHPGKPPKLMIYEVSNRPSGVSIRFSGSKSGNTASLTISGLQAEDEADYFCSSYTSTSMVFGGGTKLTVL : no binding
23B5 (antibody, V domains shown) VH: EVQLLESGGGLVQPGGSLRLSCAASGFTFSSYAMNWVRQAPGKGLEWVSTISGSGDNTYYADSVKGRFTISRDNSKNTLYLQMNSLRAEDTAVYYCAKKFVLMVYAMLDYWGQGTLVTVSS VL: DILMTQSPSSLSASVGDRVTITCRASQSISSYLNWYQQKPGKAPKVLIYAASSLQSGVPSRFSGSGSGTDFTLTINSLQPEDFATYYCQQSYSSPITFGQGTRLEIK : no binding
30A4 (antibody, V domains shown) VH: QVQLVESGGGVVQPGRSLRLSCAASGFTFSSYGMHWVRQAPGKGLEWVAVIWYDGSDKYYADSVKGRFTISRDNSKNTLYLQMNSLRAEDTAVYYCARETGPLKLYYYGMDVWGQGTTVTVSS VL: DIVMTQSPLSLSVTPGEPPSISCRSSQSLLHSNGYNFLNWYLQKPGQSPQLLIYLGSHRASGVPDRFSGSGSGTDFTLEISRVEAEDVGVYYCMQVLQTPFTFGPGTKVDIK : no binding
